# experimental.target: calpain-I isolated from human erythrocytes (Homo sapiens)
# Construct: calpain-I—isolated from human erythrocytes
# run.description: Calpain I kinetic fluorescence enzyme inhibition assay
# condition.info: apparent Ki from IC50 by Cheng-Prussoff; average of 2 to 4 dose-effect plots
Reported Ki values are given for each entry in this list.

Below: 3 compounds and their reported Ki.
- CCN(CC)Cc1ccc(-c2ccn(-c3ncccc3C(=O)NC(Cc3ccccc3)C(=O)C(N)=O)n2)cc1.Cl (stereo not shown) [Example 43, hydrochloride]: 0.04 to 0.1 µM
- NC(=O)C(=O)C(Cc1ccccc1)NC(=O)c1cccnc1-n1ccc(-c2sccc2Cl)n1 (stereo not shown): ≤ 0.04 µM
- NC(=O)C(=O)C(Cc1ccccc1)NC(=O)c1cccnc1-n1ccc(-c2cc(F)cc(F)c2)n1 (stereo not shown): ≤ 0.04 µM

Note: attention shifts to another entry.
input: Would you mind telling me what Ki value was observed for NC(=O)C(=O)C(Cc1ccccc1)NC(=O)c1cccnc1-n1ccc(-c2cccc(C(F)(F)F)c2)n1 (stereo not shown) ?
output: ≤ 0.04 µM

* * *

Reported Ki values are given for each entry in this list.
# experimental.target: calpain-I isolated from human erythrocytes (Homo sapiens)
# Construct: calpain-I—isolated from human erythrocytes
# Sequence (P07384 1-714): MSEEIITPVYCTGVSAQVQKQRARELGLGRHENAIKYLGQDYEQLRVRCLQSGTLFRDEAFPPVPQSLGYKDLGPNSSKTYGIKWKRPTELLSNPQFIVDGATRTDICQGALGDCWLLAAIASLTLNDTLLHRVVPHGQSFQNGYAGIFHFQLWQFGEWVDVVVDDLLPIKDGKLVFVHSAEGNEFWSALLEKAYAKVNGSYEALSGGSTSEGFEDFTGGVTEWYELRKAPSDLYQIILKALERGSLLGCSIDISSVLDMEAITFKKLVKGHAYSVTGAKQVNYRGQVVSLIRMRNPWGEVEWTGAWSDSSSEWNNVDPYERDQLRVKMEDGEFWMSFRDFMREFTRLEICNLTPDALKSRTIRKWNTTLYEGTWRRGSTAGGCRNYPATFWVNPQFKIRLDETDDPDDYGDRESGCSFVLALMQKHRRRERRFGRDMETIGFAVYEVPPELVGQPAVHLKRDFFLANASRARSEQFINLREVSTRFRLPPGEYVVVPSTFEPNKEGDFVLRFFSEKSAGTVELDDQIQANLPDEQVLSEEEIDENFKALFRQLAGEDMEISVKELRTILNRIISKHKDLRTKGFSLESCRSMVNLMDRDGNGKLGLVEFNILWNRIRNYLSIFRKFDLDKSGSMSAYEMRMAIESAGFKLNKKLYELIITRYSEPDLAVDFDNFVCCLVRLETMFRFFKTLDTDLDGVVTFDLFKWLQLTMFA
# Sequence (P04632 1-268 partner): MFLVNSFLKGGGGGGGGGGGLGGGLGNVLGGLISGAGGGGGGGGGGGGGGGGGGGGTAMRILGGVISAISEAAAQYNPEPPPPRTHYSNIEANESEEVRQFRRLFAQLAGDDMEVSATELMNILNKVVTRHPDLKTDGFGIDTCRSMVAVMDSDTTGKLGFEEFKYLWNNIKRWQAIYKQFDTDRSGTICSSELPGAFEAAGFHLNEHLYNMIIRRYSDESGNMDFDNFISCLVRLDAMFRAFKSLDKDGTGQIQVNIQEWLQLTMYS
# run.description: Calpain I kinetic fluorescence enzyme inhibition assay
# condition.info: apparent Ki from IC50 by Cheng-Prussoff; average of 2 to 4 dose-effect plots
Structures can show the parent of a compound that is named as a salt.

• CC(C)c1ccc2c(c1)-c1nn(-c3ncccc3C(=O)NC(Cc3ccccc3)C(=O)C(N)=O)cc1CO2 (stereo not drawn) = ≤ 40 nM
• CCN(CC)c1ccc(-c2cn(-c3ncccc3C(=O)NC(Cc3ccccc3)C(=O)C(N)=O)cn2)cc1 (stereo not drawn) [Example 16, hydrochloride] = 40 to 100 nM
• CCCCC(NC(=O)c1cccnc1-n1cnc(-c2ccc(OC)cc2)c1)C(=O)C(N)=O (stereo not drawn) = ≤ 40 nM
• NC(=O)C(=O)C(Cc1ccccc1)NC(=O)c1cccnc1-n1ccc(-c2cccc(OCc3ccccc3)c2)n1 (stereo not drawn) = ≤ 40 nM

input: Would you mind telling me what Ki value was observed for NC(=O)C(=O)C(Cc1ccccc1)NC(=O)c1ccccc1-n1ccc(-c2ccccc2)n1 (stereo not drawn) ?
output: ≤ 40 nM

input: Next: NC(=O)C(=O)C(Cc1ccccc1)NC(=O)c1cccnc1-n1ccc(-c2cccc3c2OCC3)n1 (stereo not drawn)
output: ≤ 40 nM

input: Next: NC(=O)C(=O)C(Cc1ccccc1)NC(=O)c1cccnc1-n1ccc(-c2ccccn2)n1 (stereo not drawn)
output: 40 to 100 nM

input: Next: NC(=O)C(=O)C(Cc1ccccc1)NC(=O)c1cccnc1-n1cc2ccccc2n1 (stereo not drawn)
output: 40 to 100 nM

input: Next: NC(=O)C(=O)C(Cc1ccccc1)NC(=O)c1cccnc1-n1ccc(-c2cccc3c2OC(F)(F)O3)n1 (stereo not drawn)
output: ≤ 40 nM

input: Next: Cl.NC(=O)C(=O)C(Cc1cccnc1)NC(=O)c1cccnc1-n1ccc(-c2ccccc2)n1 (stereo not drawn) [Example 88, hydrochloride]
output: 40 to 100 nM

input: Next: NC(=O)C(=O)C(Cc1ccccc1)NC(=O)c1cccnc1-n1ccc(-c2ccccc2)n1 (stereo not drawn)
output: ≤ 40 nM

input: Next: NC(=O)C(=O)C(Cc1ccccc1)NC(=O)c1cccnc1-n1ncc2ccccc21 (stereo not drawn)
output: ≤ 40 nM

input: Next: COc1cc(F)ccc1-c1ccn(-c2ncccc2C(=O)NC(Cc2ccccc2)C(=O)C(N)=O)n1 (stereo not drawn)
output: ≤ 40 nM

input: Next: COc1ccc(CC(NC(=O)c2cccnc2-n2ccc(-c3ccc4c(c3)OC(F)(F)O4)n2)C(=O)C(N)=O)cc1 (stereo not drawn)
output: 40 to 100 nM

input: Next: NC(=O)C(=O)C(Cc1ccc(F)cc1)NC(=O)c1cccnc1-n1ccc(-c2ccccc2)n1 (stereo not drawn)
output: ≤ 40 nM

* * *

# experimental.target: calpain-I isolated from human erythrocytes (Homo sapiens, UniProt P07384)
# Construct: calpain-I—isolated from human erythrocytes
# run.description: Calpain I kinetic fluorescence enzyme inhibition assay
# condition.info: apparent Ki from IC50 by Cheng-Prussoff; average of 2 to 4 dose-effect plots
Counter-ions that a name gives are not always drawn.
parameter.measured: Ki

Below: 4 compounds and their reported Ki.
- CCCCC(NC(=O)c1cccnc1-n1ccc(-c2ccc(OC)cc2)n1)C(=O)C(N)=O (stereo not shown): 40 to 100 nM
- NC(=O)C(=O)C(Cc1ccccc1)NC(=O)c1cccnc1-n1ccc(-c2c(F)cc(F)cc2F)n1 (stereo not shown): ≤ 40 nM
- CC(C)CC(NC(=O)c1cc(Cl)cnc1-n1cnc(-c2ccccc2)c1)C(=O)C(N)=O (stereo not shown): ≤ 40 nM
- NC(=O)C(=O)C(Cc1ccccc1)NC(=O)c1cccnc1-n1cnc(-c2ccccc2Cl)c1 (stereo not shown) [Example 19, hydrochloride]: ≤ 40 nM

input: Would you mind telling me what Ki value was observed for NC(=O)C(=O)C(Cc1ccccc1)NC(=O)c1cccnc1-n1cc(CCN2CCOCC2)c(-c2ccc(F)cc2)n1 (stereo not shown) ?
output: 40 to 100 nM

input: Next: CCCCC(NC(=O)c1cc(Cl)cnc1-n1cnc(-c2ccccc2)c1)C(=O)C(N)=O.Cl (stereo not shown) [Example 24, hydrochloride]
output: ≤ 40 nM

input: Next: CN1CCN(c2ccc(-c3ccn(-c4ncccc4C(=O)NC(Cc4ccccc4)C(=O)C(N)=O)n3)cc2)CC1 (stereo not shown)
output: 40 to 100 nM

* * *

# experimental.target: calpain-I isolated from human erythrocytes (Homo sapiens)
# Construct: calpain-I—isolated from human erythrocytes
# Sequence (P07384 1-714): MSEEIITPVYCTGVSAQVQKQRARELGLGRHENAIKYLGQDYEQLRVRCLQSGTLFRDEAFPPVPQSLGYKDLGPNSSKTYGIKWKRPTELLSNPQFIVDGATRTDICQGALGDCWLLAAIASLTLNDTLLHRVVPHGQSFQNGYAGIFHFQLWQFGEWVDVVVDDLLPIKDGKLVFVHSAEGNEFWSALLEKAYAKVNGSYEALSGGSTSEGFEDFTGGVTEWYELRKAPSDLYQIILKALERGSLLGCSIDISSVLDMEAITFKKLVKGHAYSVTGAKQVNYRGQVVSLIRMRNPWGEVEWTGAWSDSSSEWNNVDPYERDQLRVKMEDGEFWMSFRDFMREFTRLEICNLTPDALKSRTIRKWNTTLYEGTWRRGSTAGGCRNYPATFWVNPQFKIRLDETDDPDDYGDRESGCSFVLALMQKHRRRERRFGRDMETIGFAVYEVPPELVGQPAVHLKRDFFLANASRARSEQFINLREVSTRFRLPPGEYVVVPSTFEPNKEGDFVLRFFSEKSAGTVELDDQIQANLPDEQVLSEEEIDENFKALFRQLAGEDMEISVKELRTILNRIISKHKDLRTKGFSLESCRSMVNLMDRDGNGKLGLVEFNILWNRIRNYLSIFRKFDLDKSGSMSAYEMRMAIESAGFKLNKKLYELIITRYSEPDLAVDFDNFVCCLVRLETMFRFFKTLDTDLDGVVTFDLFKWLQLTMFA
# Sequence (P04632 1-268 partner): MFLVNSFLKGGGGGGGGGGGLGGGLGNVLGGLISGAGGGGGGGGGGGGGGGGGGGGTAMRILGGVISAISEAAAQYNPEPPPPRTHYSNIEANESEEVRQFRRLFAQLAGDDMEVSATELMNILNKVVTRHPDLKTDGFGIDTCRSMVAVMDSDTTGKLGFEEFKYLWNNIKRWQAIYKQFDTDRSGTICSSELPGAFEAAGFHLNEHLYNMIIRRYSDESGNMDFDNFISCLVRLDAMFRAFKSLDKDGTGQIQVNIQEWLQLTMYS
# run.description: Calpain I kinetic fluorescence enzyme inhibition assay
# condition.info: apparent Ki from IC50 by Cheng-Prussoff; average of 2 to 4 dose-effect plots
pKi: −log10 of the molar value.
Reported pKi values are given for each entry in this list.

Below: 5 compounds and their reported pKi.
* NC(=O)C(=O)C(Cc1ccccc1)NC(=O)c1cccnc1-n1cc2c(n1)-c1ccccc1OCC2 (stereo not shown) [Example 141] | 7.00 to 7.40
* Cl.NC(=O)C(=O)C(Cc1ccccc1)NC(=O)c1cccnc1-n1ccc(-c2ccc(N3CCOCC3)cc2)n1 (stereo not shown) [Example 29, hydrochloride] | ≥ 7.40
* NC(=O)C(=O)C(Cc1ccc(F)cc1)NC(=O)c1cccnc1-n1ccc(-c2ccc(Cl)cc2Cl)n1 (stereo not shown) [Example 114] | 7.00 to 7.40
* NC(=O)C(=O)C(Cc1ccc(Cl)cc1)NC(=O)c1cccnc1-n1ccc(-c2ccc(F)cc2)n1 (stereo not shown) [Example 67] | 7.00 to 7.40
* COc1ccc(CC(NC(=O)c2cccnc2-n2ccc(-c3ccc(F)cc3)n2)C(=O)C(N)=O)cc1 (stereo not shown) [Example 81] | ≥ 7.40

input: Would you mind telling me what pKi value was observed for NC(=O)C(=O)C(Cc1ccccc1)NC(=O)c1cccnc1-n1ccc(-c2ccccc2F)n1 (stereo not shown) [Example 76] ?
output: ≥ 7.40

input: Next: CCCCC(NC(=O)c1cccnc1-n1cnc(-c2ccc(Cl)cc2)c1)C(=O)C(N)=O (stereo not shown) [Example 10]
output: ≥ 7.40
